Taken from patent US4357344A.

Exercise: state measured Mortality, parent generation for each of the compounds provided.
tested on: flies (family Muscidae); assay: Oviposition inhibition tests (treated fly food; Examples 6-9); type: in vivo; settings: 0.25% in food

Below: 6 compounds and their reported Mortality, parent generation.
INSERT INTO results (compound, metric_name, result) VALUES
  ('COc1ccc(Cc2cc3c(cc2OC(C)C)OCO3)cc1', 'Mortality, parent generation', '0%'),
  ('COc1ccc(Cc2cc3c(cc2OC)OCO3)cc1', 'Mortality, parent generation', '60%'),
  ('CCCOc1cc2c(cc1C(C)c1ccccc1)OCO2 (centres unmarked)', 'Mortality, parent generation', '0%'),
  ('COc1c(C)cc(Cc2ccc3c(c2)OCO3)cc1C', 'Mortality, parent generation', '0%'),
  ('COc1ccc(Cc2cc3c(cc2OCCC(C)C)OCO3)cc1', 'Mortality, parent generation', '0%'),
  ('CCCCCOc1cc2c(cc1C(C)c1ccc(OC)cc1)OCO2 (centres unmarked)', 'Mortality, parent generation', '0%');

Take each entry in turn and give its Mortality, parent generation.
1. CCOc1c(C)cc(Cc2ccc3c(c2)OCO3)cc1C
2. COc1ccc(Cc2ccc3c(c2)OCO3)c(OC)c1

**A:**
1: 0%; 2: 60%
